# SYSTEM UNDER TEST: HCV NS5B polymerase (His-tagged, C-terminal 21 amino acid deleted NS5B, HC-J4) (Hepatitis C virus genotype 1b)
# Construct: The cDNA encoding NS5B amino acid 1-570 (HC-J4, genotype 1b); His tag (His6, from pET-21b) (C); made in house; host or cells: E. coli BL21 (DE3)
# Sequence (O92972 2417-3000, looked up, stated change not applied): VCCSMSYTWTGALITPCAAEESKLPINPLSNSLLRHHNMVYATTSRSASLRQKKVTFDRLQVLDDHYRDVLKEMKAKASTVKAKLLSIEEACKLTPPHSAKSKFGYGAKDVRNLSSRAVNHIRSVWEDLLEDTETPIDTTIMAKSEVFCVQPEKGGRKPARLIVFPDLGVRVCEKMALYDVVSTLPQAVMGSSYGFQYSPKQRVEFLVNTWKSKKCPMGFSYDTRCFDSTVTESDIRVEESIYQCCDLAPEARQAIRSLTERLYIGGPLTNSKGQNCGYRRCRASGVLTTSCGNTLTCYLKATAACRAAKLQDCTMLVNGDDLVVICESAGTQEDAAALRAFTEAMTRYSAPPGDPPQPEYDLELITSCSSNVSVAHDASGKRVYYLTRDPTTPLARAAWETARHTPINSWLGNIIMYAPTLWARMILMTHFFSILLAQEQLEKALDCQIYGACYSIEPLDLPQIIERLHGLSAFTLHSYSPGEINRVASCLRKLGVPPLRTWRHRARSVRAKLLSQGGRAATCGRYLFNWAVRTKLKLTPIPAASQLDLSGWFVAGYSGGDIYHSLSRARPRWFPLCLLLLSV
# MEASUREMENT PROTOCOL: NS5b polymerase assay (biochemical RdRp assay, 3H-GTP incorporation, SPA beads)
# Design: species or system HCV genotype 1b
# PROTOCOL CONDITIONS: NS5B Polymerase Assay IC50, 200 nM enzyme, 3H-GTP incorporation, 2 h at 25° C.
PARAMETER MEASURED: pIC50
Keep it numeric: pIC50 is minus log10 of the concentration in mol/L.

CC(=O)N1c2cc(C#N)ccc2NC2=C(C(=O)CC(C)(C)C2)C1c1ccc(Cl)cc1Cl (stereo not shown) [compound 318]; 4.17

Please examine the following record next.
Ask | Can you look up the measured pIC50 of CC(=O)N1c2ccccc2NC2=C(C(=O)CC(C)(C)C2)C1c1ccc(OCc2ccccc2)c(Cl)c1 (single isomer, unassigned) [compound 304] for me?
Reply | 6.34

Values from patent US20090221559A1
